The following variants are shown together with reported AIRE transcriptional activation functional score values.
B1: library; numbered along this chain (parent)
chain: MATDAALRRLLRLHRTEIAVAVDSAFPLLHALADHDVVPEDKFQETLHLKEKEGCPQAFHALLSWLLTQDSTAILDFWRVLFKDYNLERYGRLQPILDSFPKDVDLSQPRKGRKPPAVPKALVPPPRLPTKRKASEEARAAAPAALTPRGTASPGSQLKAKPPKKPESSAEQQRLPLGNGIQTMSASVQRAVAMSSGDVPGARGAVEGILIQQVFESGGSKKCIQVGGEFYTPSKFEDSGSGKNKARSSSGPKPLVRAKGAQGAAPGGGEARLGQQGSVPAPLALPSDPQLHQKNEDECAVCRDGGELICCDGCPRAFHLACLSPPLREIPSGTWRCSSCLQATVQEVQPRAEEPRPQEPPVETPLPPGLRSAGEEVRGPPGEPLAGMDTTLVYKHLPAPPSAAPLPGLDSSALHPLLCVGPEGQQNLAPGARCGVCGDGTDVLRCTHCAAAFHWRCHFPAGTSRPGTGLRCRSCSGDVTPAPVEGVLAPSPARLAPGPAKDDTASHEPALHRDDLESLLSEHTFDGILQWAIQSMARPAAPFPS

- Variants of: B1
- Measurement protocol: AIRE transcriptional activation functional score (insulin promoter-GFP; nonsense median 0, synonymous median 1) (normalised score); higher = higher AIRE activity (more reporter activation)
- Recorded conditions: with insulin promoter-GFP reporter in HEK293
Enter a number only.

Returns the measured AIRE transcriptional activation functional score for the input variant. Input: `P163Q` 1.05

Returns the measured AIRE transcriptional activation functional score for the input variant. Input: `L81Y` 0.0857

Returns the measured AIRE transcriptional activation functional score for the input variant. Input: `A482N` 1.2

Returns the measured AIRE transcriptional activation functional score for the input variant. Input: `R127E` 0.317

Returns the measured AIRE transcriptional activation functional score for the input variant. Input: `S220W` -1.37

Returns the measured AIRE transcriptional activation functional score for the input variant. Input: `Q69M` -0.732

Returns the measured AIRE transcriptional activation functional score for the input variant. Input: `L106C` -0.159

Returns the measured AIRE transcriptional activation functional score for the input variant. Input: `D238G` 1

Returns the measured AIRE transcriptional activation functional score for the input variant. Input: `R132A` 0.179

Returns the measured AIRE transcriptional activation functional score for the input variant. Input: `R132F` -0.0252

Returns the measured AIRE transcriptional activation functional score for the input variant. Input: `S107H` 1.33

Returns the measured AIRE transcriptional activation functional score for the input variant. Input: `K131W` -0.218

Reference source: the supplement of paper PMC12667976
